# credit: patent US4393178A

runDescription: Solubility parameter δ of the acid; note: unit not given here
details: product for the acid
I'd be grateful if you could share measured δ × pKH.sbsb.2O for these entries.
Form rule: numeric answer, no unit written next to it.

Annotate the compound "O=C(O)c1ccccc1Cl" with its measured δ × pKH.sbsb.2O.
37

State its δ × pKH.sbsb.2O: O=C(O)c1c(O)cc(O)cc1O [2,4,6-dihydroxy benzoic acid]
26

// fetch δ × pKH.sbsb.2O given entry CC(C)(C)c1ccc(C(=O)[O-])cc1.[Na+] [sodium para-tert-butylbenzoate, reference compound]
62

Identify measured δ × pKH.sbsb.2O associated with "O=C(O)c1ccc([N+](=O)[O-])cc1"
46

Tell us which δ × pKH.sbsb.2O value is on record for "O=C(O)c1ccc(Oc2ccccc2)cc1"
47

Complete the entry with δ × pKH.sbsb.2O for "O=C(O)c1cc([N+](=O)[O-])cc([N+](=O)[O-])c1"
38

Give the value of δ × pKH.sbsb.2O reported for the following: O=C(O)c1cccc(O)c1 [metra-hydroxy benzoic acid]
54

Please supply the value of reported δ × pKH.sbsb.2O for the item "O=C(O)c1ccc(F)cc1"
50

Specify reported δ × pKH.sbsb.2O for the compound shown: "O=C(O)c1cccc(Cl)c1"
47

Answer with the recorded δ × pKH.sbsb.2O of "O=C(O)c1cccc([N+](=O)[O-])c1" only.
30
